testTarget: 5-hydroxytryptamine receptor 5A (Homo sapiens) (UniProt P47898)
Sequence (P47898 whole entry, looked up): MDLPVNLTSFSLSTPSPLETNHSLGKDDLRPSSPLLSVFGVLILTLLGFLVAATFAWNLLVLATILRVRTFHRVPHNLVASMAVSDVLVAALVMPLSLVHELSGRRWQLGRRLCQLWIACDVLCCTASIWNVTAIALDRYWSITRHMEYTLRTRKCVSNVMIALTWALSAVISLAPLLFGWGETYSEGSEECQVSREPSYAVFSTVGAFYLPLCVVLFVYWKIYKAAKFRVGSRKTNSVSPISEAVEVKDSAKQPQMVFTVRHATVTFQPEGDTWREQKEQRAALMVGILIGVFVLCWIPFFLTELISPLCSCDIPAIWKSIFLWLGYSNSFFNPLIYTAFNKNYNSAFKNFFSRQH
protocolText: inverse agonism at human 5-HT5A receptor – cell-based, luminescence, full-deck HTS, counter-screen for OPRM1-OPRD1 heterodimer inverse agonist project, primary screen (AID 504634);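 note: 0% = cells with DMSO and 100% = no-cell wells with DMSO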
conditionNotes: HTR5A cell line, at 9.3 µM, active compounds read high
Among all 340,000 compounds or so, about 280 (0.082%) were called active. Shown is part of a subset that was picked to be rich in actives.
Give inhibition for every item shown.
Numbers only, in %.

Please review the entries below; each comes with its answer.
- COC(=O)C1=C(c2cc3ccccc3s2)C[C@@H]2CC[C@H]1N2C(=O)NC(C)C: 5.09
- C[C@]12CCC3C(CC[C@H]4[C@H](O)[C@H](O)CC[C@]34C)C1CC[C@@H]2O (some centres undefined): -10.8
- c1ccc(C2NCc3ccccc3-n3cccc32)cc1 (centres undefined): -5.59

Now look at this one.
Sure, the documented inhibition for COC1C(O)C(C)OC(OC2CCC3(C=O)C(CCC4C3CCC3(C)C(C5=CC(=O)OC5)CCC43O)C2)C1O (centres undefined) is -11
